biological target: human CTLA-4 (huCTLA4), on stably transduced CHO cells (human) (UniProt P16410); assay: flow cytometry on CHO cells stably expressing huCTLA4, 33.3 nM Fc fusion, PE anti-human Fc
Sequence (P16410 36-223): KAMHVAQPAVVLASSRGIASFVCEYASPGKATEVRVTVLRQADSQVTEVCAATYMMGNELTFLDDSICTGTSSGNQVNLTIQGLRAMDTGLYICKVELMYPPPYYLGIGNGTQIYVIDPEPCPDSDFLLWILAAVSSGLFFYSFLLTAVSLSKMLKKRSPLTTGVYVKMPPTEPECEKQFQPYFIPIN
property: MFI at 33.3 nM (MFI)

variant CD80 IgV-Fc E35D/M47L/A71G/L85M (Fc fusion) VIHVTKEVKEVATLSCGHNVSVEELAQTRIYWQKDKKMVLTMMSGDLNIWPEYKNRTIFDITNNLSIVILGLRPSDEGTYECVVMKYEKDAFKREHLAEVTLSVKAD | 16600
variant CD80 IgV-Fc E35D/L97R (Fc fusion) VIHVTKEVKEVATLSCGHNVSVEELAQTRIYWQKDKKMVLTMMSGDMNIWPEYKNRTIFDITNNLSIVILALRPSDEGTYECVVLKYEKDAFKREHRAEVTLSVKAD | 22800
